Test system: Wolbachia pipientis
assay-comment: Anti-Wolbachia Cell-Based Screen
Type: functional
Parameters: scale not given: in the data most compounds retested in dose-response had high values
applied-conditions: 5 µM
Hit rate of the full screen: of about 48,000 compounds, about 13,000 (27%) showed an effect of 50% or more. Some of the results follow.
assay-metric: Percent Effect (%)
Field: numeric (%). Do not append units.

CC(C)COC(C)C(=O)NCc1cc(F)cc(F)c1 (centres undefined) ... -4.135
Cc1nccc(-c2cccc(NCC(=O)N3CCCCCCC3)c2)n1 ... 4.13
CCc1cnc(NCCS(=O)(=O)N(C)C)nc1 ... -13.3
CC(C)COC(C)C(=O)NCc1ccc(F)cc1 (centres undefined) ... 52.08
Cc1nnc([C@@H]2CC[C@@H]3[C@@H](CCN3S(C)(=O)=O)O2)o1 ... 4.456
CC(OCC1CC1)C(=O)NCc1cccc(CN2CCCC2=O)c1 (centres undefined) ... 3.012
CN(CC1CCN(c2ccccc2)C1)c1ccc(Cn2ccnc2)cn1 (centres undefined) ... -14.61
CC[C@H](C)Nc1ncc(-c2cccc(NC(=O)CNC)c2)cn1 ... 114.1
Cn1ccnc1-c1cccc(NC(=O)NCC(=O)NC(C)(C)C)c1 ... -2.22
O=C(NCc1ccccn1)N1CC=C(c2ccccc2)CC1 ... 32.63

We now examine a further compound.
Measured Percent Effect of `CNCC(=O)Nc1cccc(-c2cnc(NCCO)nc2)c1` : 140.4
